test system: PC-3 prostate; test: NCI tumour cell line growth inhibition, 48 h
log10 TGI listing for selected compounds.
The figures below represent log10 of TGI, where TGI is stated in µM.

Please review the entries below; each comes with its answer.
O=C1C(=O)c2ccccc2C(O)=C1CCCCCCCCC1CCCCC1 :: 1.29
CN(C)/C=C/c1nnnn1-c1ccc(I)cc1 :: 1.66
CCCN(CCC)C(=O)[C@H](CC)[C@@H]1CC[C@@H](C)[C@@H]([C@H](C)[C@@H](O)[C@@H](C)C(=O)[C@H](CC)C2O[C@]3(C=C[C@@H](O)[C@]4(CC[C@@](C)([C@H]5CC[C@](O)(CC)[C@H](C)O5)O4)O3)[C@H](C)C[C@@H]2C)O1 (some centres not stated) :: 1.04
N=C(N)c1ccc(-c2ccc(-c3cccs3)s2)nc1 :: 0.79
O=C1c2ccccc2-c2c1c(-c1ccccc1)c1n2C2(C(=O)c3ccccc3C2=O)C2C(=O)N(c3ccccc3)C(=O)C12 (configuration not stated) :: 1.91
Cc1nn(-c2nc3ccccc3[nH]2)c2c1C(c1ccc3c(c1)OCO3)CC(=O)N2 (configuration not stated) :: 1.34

Now, please, on to the next compound.
Any idea what log10 TGI came out for N#CC1=C(N)Oc2c(sc3c(F)cccc23)C1c1ccc(F)cc1 (configuration not stated) on PC-3 prostate?
1.21

###

system: CAKI-1 renal; test: NCI tumour cell line growth inhibition, 48 h
TGI listing for selected compounds.
Note: unit µM is implicit; provide only the numeric part.

Please review the entries below; each comes with its answer.
CN(C)CCCNc1ccc2nnn3c4ccc(OC(=O)c5ccc([N+](=O)[O-])cc5)cc4c(=O)c1c23 :: 7.59
CN(C)c1ccc(O)c2c1C[C@H]1C[C@H]3[C@H](N(C)C)C(=O)C(C(N)=O)=C(O)[C@@]3(O)C(=O)C1=C2O :: 20.9
COC(=O)c1cc2oc(/C=C3\SC(=S)N(NC(C)=O)C3=O)cc2n1Cc1ccccc1 :: 7.79

Form field: reported TGI of [C-]#[N+]C(C)(C)C[C@H]1CC(C)C2CCC(C)C3([N+]#[C-])CCC(=C)C1[C@H]23 (stereo not given in full)
20.1

###

TGI listing for selected compounds.
tested on: SF-539 CNS; assay: NCI tumour cell line growth inhibition, 48 h
Note: unit µM is implicit; provide only the numeric part.

Nc1nc(Cl)cc(NCCCCCCCCCCCCNc2cc(Cl)nc(N)n2)n1 :: 72.5

Any idea what TGI came out for COc1cc(-c2oc(C=Nc3ccccc3)c([N+](=O)[O-])c2-c2ccc(O)c(OC)c2)ccc1O on SF-539 CNS?
42.9

Same read-out for Oc1c(N=Nc2ccccc2)c2ccccc2c2ccc3ccccc3c12 ?
85.2

Same read-out for COc1ccccc1/C=N/N=C(\N)NO ?
9.4

Same read-out for COc1ccc2nc3ccc(OC)cc3c(SCC3CO3)c2c1 (stereo not given) ?
23.7

Same read-out for Cc1nn(-c2nc3ccccc3[nH]2)c2c1C(c1ccc3c(c1)OCO3)CC(=O)N2 (stereo not given) ?
4.82

Same read-out for CN(C)/C=C/c1nnnn1-c1ccc(I)cc1 ?
42.5

Same read-out for ClCc1ccc2ccc3ccc(CCl)nc3c2n1 ?
5.85

Same read-out for O=C(N/C(=C\c1ccc(Oc2ccc(Cl)c(Cl)c2)cc1)c1nc2ccccc2[nH]1)c1ccccc1 ?
32.7

###

tested on: HOP-62 NSCLC; test: NCI tumour cell line growth inhibition, 48 h
PARAMETER: TGI (µM)
Note: unit µM is implicit; provide only the numeric part.

Please review the entries below; each comes with its answer.
COC(=O)c1cc2oc(/C=C3\SC(=S)N(NC(C)=O)C3=O)cc2n1Cc1ccccc1 :: 20.7
CC(C)CCc1c(Cl)nc(Cl)nc1Cl :: 30.4
CN(C)CCNC(=O)c1cc2c3ccccc3[nH]c2c2ncccc12 :: 37.5

Any idea what TGI came out for CC1CC(C)(O)CC(C(O)CC2CC(=O)NC(=O)C2)C1=O (centres undefined) on HOP-62 NSCLC?
0.449

###

tested on: CCRF-CEM leukemia; assay: NCI tumour cell line growth inhibition, 48 h; in the data active means GI50 below about 0.43 µM; inactive means the rest
A correct response names exactly one class from 1 = active, -1 = inactive

CN(C)c1ccc(O)c2c1C[C@H]1C[C@H]3[C@H](N(C)C)C(=O)C(C(N)=O)=C(O)[C@@]3(O)C(=O)C1=C2O :: -1
O=Cc1ccc(O)c2ncccc12 :: -1
C=CC(=O)Nc1cccc(C)c1Nc1ncc2cc(-c3c(Cl)c(OC)cc(OC)c3Cl)ccc2n1 :: -1

Per the assay record, what outcome was assigned to COc1ccc(/C=C/C(=O)c2cc3c(N)c(C(=O)Nc4ccccc4)sc3nc2C)cc1 ?
1

Same read-out for CN1CCn2c(c(Sc3ccc(C(=O)NO)cc3)c3ccccc32)C1=O ?
-1

###

TGI listing for selected compounds.
test system: UO-31 renal; experiment: NCI tumour cell line growth inhibition, 48 h

Form field: reported TGI of O=C(CN1CCOCC1)Nc1ccc2c(c1)C1Oc3ccccc3CC1CO2 (centres undefined)
> 100 µM

Same read-out for Cc1cc(N)ccc1C=O ?
> 100 µM

Same read-out for COc1ccccc1/C=N/N=C(\N)NO ?
> 100 µM

###

tested on: HL-60(TB) leukemia; assay: NCI tumour cell line growth inhibition, 48 h; in the data active = GI50 below about 0.43 µM; inactive = the rest
A correct response names exactly one class from label 1 for active, label 0 for inactive

O=C(N/N=C\c1ccc(N(CCCl)CCCl)cc1Cl)c1cccnc1 :: label 0
OC(CNc1ccnc2cc(Cl)ccc12)CNC1CCCCC1 (centres undefined) :: label 0
C=C1C(=O)O[C@H]2[C@H]1CC/C(CNS(=O)(=O)c1cccc3ccccc13)=C\CC[C@@]1(C)O[C@@H]21 :: label 0
Clc1ccc2c(c1)-c1ccccc1C1=NCCN12 :: label 0

Okay, next one:
Per the assay record, what outcome was assigned to COc1cc(/C=C/C(=O)c2c(C)n([O-])c3ccc(Cl)cc3[n+]2=O)cc(OC)c1OC ?
label 0

###

TGI listing for selected compounds.
test system: SK-MEL-28 melanoma; assay: NCI tumour cell line growth inhibition, 48 h

Please review the entries below; each comes with its answer.
FC(F)(F)C1(C(F)(F)F)O[SiH]2(OC(C(F)(F)F)(C(F)(F)F)c3ccccc32)c2ccccc21 :: 72.6 µM
Cc1ccc(CCCCCOc2ccc(C3=NCCO3)cc2)s1 :: > 100 µM

Now, please, on to the next compound.
Any idea what TGI came out for CC(C)C[C@@H]1NC(=O)[C@@H]2CCCN2C(=O)[C@@H]2CCCN2C(=O)[C@H](CC(C)C)NC(=O)[C@H](CO)NC(=O)[C@H](CCCCN)NC(=O)[C@H]([C@H](C)O)NC(=O)[C@@H]2CCCC[C@@H](NC1=O)C(=O)N[C@@H](Cc1ccccc1)C(=O)N1CCC[C@H]1C(=O)N[C@@H](CC(=O)O)C(=O)NCC(=O)N[C@@H](CCCN=C(N)N)C(=O)N2 on SK-MEL-28 melanoma?
> 50 µM

###

test system: T-47D breast; experiment: NCI tumour cell line growth inhibition, 48 h
PARAMETER: GI50

Please review the entries below; each comes with its answer.
CCCN(CCC)C(=O)[C@H](CC)[C@@H]1CC[C@@H](C)[C@@H]([C@H](C)[C@@H](O)[C@@H](C)C(=O)[C@H](CC)C2O[C@]3(C=C[C@@H](O)[C@]4(CC[C@@](C)([C@H]5CC[C@](O)(CC)[C@H](C)O5)O4)O3)[C@H](C)C[C@@H]2C)O1 (stereo partly drawn) :: 3.08 µM
Clc1ccc2c(c1)-c1ccccc1C1=NCCN12 :: 2.73 µM

Now, please, on to the next compound.
Form field: reported GI50 of C=C1CC[C@@H]2[C@](C)(COC(C)=O)[C@H](OC(C)=O)CC[C@@]2(C)[C@@H]1C/C=C1/C(=O)OC[C@H]1OC(C)=O
2.86 µM

###

TGI listing for selected compounds.
tested on: M14 melanoma; test: NCI tumour cell line growth inhibition, 48 h
Note: unit µM is implicit; provide only the numeric part.

Please review the entries below; each comes with its answer.
C[CH2][Sn]([Cl])([Cl])[CH2]C :: 57.7
CC(C)(C)[Si](C)(C)OCC#C[C@@]1(O)CCCCC1CC(Sc1ccccc1)Sc1ccccc1 (some centres undefined) :: 35.5
COc1ccc2c(c1)CC1c3c(cc4c(c3-2)OCO4)CCN1C (centres undefined) :: 62.9

Form field: reported TGI of COc1cc([N+](=O)[O-])c(OC)cc1-c1nc2sc(Cl)cn2c1/C=N/NC(=N)N/N=C/c1c(-c2cc(OC)c([N+](=O)[O-])cc2OC)nc2sc(Cl)cn12
3.36

###

tested on: HT29 colon; assay: NCI tumour cell line growth inhibition, 48 h
TGI listing for selected compounds.

Please review the entries below; each comes with its answer.
CCCN(CCC)C(=O)[C@H](CC)[C@@H]1CC[C@@H](C)[C@@H]([C@H](C)[C@@H](O)[C@@H](C)C(=O)[C@H](CC)C2O[C@]3(C=C[C@@H](O)[C@]4(CC[C@@](C)([C@H]5CC[C@](O)(CC)[C@H](C)O5)O4)O3)[C@H](C)C[C@@H]2C)O1 (stereo partly drawn) :: 12.7 µM
CC1=Nn2c(nnc2-c2ccc(N)cc2)NC(C)(C)C1 :: > 100 µM

Now, please, on to the next compound.
Any idea what TGI came out for O=C1CCc2cc3c(cc21)CC1(Cc2cc4c(cc2C1)CCCC4)C3 on HT29 colon?
> 100 µM
